These measurements were taken from PubChem BioAssay AID618.

Test system: MT1-MMP promoter luciferase reporter cells, luminescence
ASSAY_DETAILS: MT1-MMP gene expression reporter suppression – cell-based, luciferase reporter, luminescence (AID 618);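 also: actives suppress MT1-MMP promoter-driven transcription so potencies describe inhibitors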
READOUT_TYPE: pEC50
Keep it numeric: pEC50 is minus log10 of the concentration in mol/L.

Some solved entries appear below for comparison.
MOLECULE	pEC50
CC(=O)N(/N=C1\Sc2ccccc2C1=O)c1ccc(C)cc1C	5.71
Cc1ccc(C(=O)CSc2nnnn2C(C)C)c(C)c1	5.77
CC(=O)c1sc(NC(=O)C2COc3ccccc3O2)nc1C (stereo unspecified)	5.27
Oc1c(CN2CCCCC2)cc(COCc2ccccc2)c2cccnc12	5.16
Cc1ccc(-c2csc3ncnc(Sc4nnc(CN5CCCCCC5=O)o4)c23)cc1	4.82
CCN(CC)c1ccc2cc(NC(=O)CCC(=O)O)c(=O)oc2c1	6.17

Observed pEC50 on MT1-MMP promoter luciferase reporter cells, luminescence, entry CCOc1ccc2nc(NC(=O)c3ccoc3C)sc2c1 , equals 6.01

So the reported pEC50 for NC(=O)c1c(NC(=O)c2cc3ccccc3o2)sc2c1CCC2 , on MT1-MMP promoter luciferase reporter cells, luminescence, turned out to be 5.18

Entry Cc1ccc(NC(=O)c2ccc3c(c2)OCCO3)cc1 : pEC50 on MT1-MMP promoter luciferase reporter cells, luminescence = 5.77

# value of pEC50, MT1-MMP promoter luciferase reporter cells, luminescence, item Nc1ccc(-c2nc3ccc(N)cc3o2)cc1 = 4.85

# value of pEC50, MT1-MMP promoter luciferase reporter cells, luminescence, item CCCOc1ccc(-c2nnc(-c3cccs3)o2)cc1 = 5.36
